I'd be grateful if you could share measured rGABA-gated Cl− channel % inh @10 μM for these entries.
# Test system: rGABA-gated Cl− channel
# procedure text: GABA-Gated Cl Channel Antagonist Radioligand Binding Assay
# Set-up: species or system rat
# measurement setup: 10 μM single point, [35S]-TBPS, cerebral cortex membrane homogenates
Answers are plain numbers, in %.

Some solved entries appear below for comparison.
| compound | experimental system | rGABA-gated Cl− channel % inh @10 μM [%] |
| --- | --- | --- |
| Cc1cc(N2C(=O)C3(CCC3)N(c3ccc(OC4CCNCC4)nc3)C2=S)cnc1C#N | rGABA-gated Cl− channel | −14.8 |
| COCCN1CCC(Oc2ccc(N3C(=S)N(c4cnc(C#N)c(C)c4)C(=O)C34CCC4)cn2)CC1 | rGABA-gated Cl− channel | −7.6 |
| CCOC(=O)N1CCC(CNC(=O)c2ccc(N3C(=S)N(c4cnc(C#N)c(C(F)(F)F)c4)C(=O)C34CCC4)cc2)CC1 | rGABA-gated Cl− channel | 86.4 |
| C#CCN1CCC(Oc2ccc(N3C(=S)N(c4cnc(C#N)c(C(F)(F)F)c4)C(=O)C34CCC4)cc2)CC1 | rGABA-gated Cl− channel | 87.2 |
| N#Cc1ncc(N2C(=O)C3(CCC3)N(c3ccc(OC4CCNC(=O)C4)cc3)C2=S)cc1C(F)(F)F (racemic) | rGABA-gated Cl− channel | 94.2 |
| Cl.N#Cc1ncc(N2C(=O)C3(CCC3)N(c3cnc(OC4CCNCC4)nc3)C2=S)cc1C(F)(F)F | rGABA-gated Cl− channel | 56.1 |

Form field, rGABA-gated Cl− channel % inh @10 μM with rGABA-gated Cl− channel, item "CN1CCC(n2ncc3cc(N4C(=S)N(c5cnc(C#N)c(Cl)c5)C(=O)C45CCC5)ccc32)CC1" : 37.9

###

# experimental system: F876L mutant Androgen Receptor (AR-F876L) (Homo sapiens (Human), UniProt P10275, F877L)
# Sequence (P10275 whole entry F877L): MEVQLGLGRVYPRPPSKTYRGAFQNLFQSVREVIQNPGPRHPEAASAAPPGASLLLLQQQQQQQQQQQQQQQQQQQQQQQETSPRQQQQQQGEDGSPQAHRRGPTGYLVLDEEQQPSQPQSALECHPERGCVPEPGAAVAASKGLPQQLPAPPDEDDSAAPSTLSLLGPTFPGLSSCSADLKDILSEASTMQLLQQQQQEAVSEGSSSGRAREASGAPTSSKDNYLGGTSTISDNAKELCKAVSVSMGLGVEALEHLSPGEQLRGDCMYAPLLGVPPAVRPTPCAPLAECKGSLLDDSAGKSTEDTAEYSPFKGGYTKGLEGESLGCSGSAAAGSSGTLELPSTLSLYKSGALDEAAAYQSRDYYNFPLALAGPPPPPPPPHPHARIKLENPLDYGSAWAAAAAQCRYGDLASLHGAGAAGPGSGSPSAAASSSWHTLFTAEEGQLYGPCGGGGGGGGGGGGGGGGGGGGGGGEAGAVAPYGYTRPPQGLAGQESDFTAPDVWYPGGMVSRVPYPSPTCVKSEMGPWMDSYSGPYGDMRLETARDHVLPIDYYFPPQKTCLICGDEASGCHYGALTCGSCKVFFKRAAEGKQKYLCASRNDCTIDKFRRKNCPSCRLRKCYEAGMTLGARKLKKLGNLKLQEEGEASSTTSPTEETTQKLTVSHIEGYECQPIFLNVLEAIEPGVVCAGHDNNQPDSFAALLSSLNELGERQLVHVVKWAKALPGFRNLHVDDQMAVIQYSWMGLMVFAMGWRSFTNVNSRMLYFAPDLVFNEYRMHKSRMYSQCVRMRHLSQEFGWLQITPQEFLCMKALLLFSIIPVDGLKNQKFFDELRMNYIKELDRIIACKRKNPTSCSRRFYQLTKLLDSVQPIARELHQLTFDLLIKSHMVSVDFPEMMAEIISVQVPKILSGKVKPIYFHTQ
# procedure text: LNCaP-AR-F876L ANT reporter assay (antagonist mode)
# Assay type: cell-based
# measurement setup: antagonist mode; pIC50 = −Log10(IC50 in Molar); read-out: LNCaP-AR-F876L ANT pIC50 (converted)
Kindly state IC50 for each of the entries shown.
Numbers only, in nM.

Consider the reported IC50 for these molecules:
| molecule | IC50 / nM |
| --- | --- |
| COCCn1ncc2ccc(N3C(=S)N(c4cnc(C#N)c(C(F)(F)F)c4)C(=O)C34CCC4)cc21 | 708 |
| CN(C)C1(COc2ccc(N3C(=S)N(c4cnc(C#N)c(C(F)(F)F)c4)C(=O)C34CCC4)cc2)COC1 | 1020 |
| CN1CCC(Oc2ccc(N3C(=S)N(c4cnc(C#N)c(C(F)(F)F)c4)C(=O)C34CCC4)cn2)CC12CCC2 (racemic) | 186 |
| Cc1cc(N2C(=O)C3(CCC3)N(c3ccc(OCCCN(C)C)nc3)C2=S)cnc1C#N | 107 |
| CN1CCC(Oc2ccc(N3C(=S)N(c4cnc(C#N)c(Cl)c4)C(=O)C34CCC4)cc2)CC1 | 83.2 |
| N#Cc1ncc(N2C(=O)C3(CCC3)N(c3ccc4c(cnn4C4CCNCC4)c3)C2=S)cc1Cl | 191 |

molecule "C[N@+]1([O-])CC[C@@H](Oc2ccc(N3C(=S)N(c4cnc(C#N)c(C(F)(F)F)c4)C(=O)C34CCC4)cc2)CC1" , IC50 observed: 1120
